Tested on: MOLT-4
Assay Method Text: Cytotoxicity against human Molt4 cells in normoxia after 48 hrs
Assay type: functional, cell-based
Run Conditions: MOLT-4, 48 h
Readout Name: pIC50
In plain terms, pIC50 is the concentration in mol/L turned into minus its base-10 logarithm.

// known answers, use as guide
molecule=O=[N+]([O-])c1ccc(CNc2n[n+]([O-])c3ccccc3[n+]2[O-])cc1 val=5.30
molecule=COc1ccc(Nc2n[n+]([O-])c3ccccc3[n+]2[O-])cc1 val=5.28
molecule=Nc1n[n+]([O-])c2ccccc2[n+]1[O-] val=4.80

// switching to the query compound
Record `[O-][n+]1nc(NCc2ccccc2)[n+]([O-])c2ccccc21` has MOLT-4 pIC50 equal to 5.09

###

compounds and their reported IC50 ratio
Test system: HL-60
Assay Method Text: Ratio of cytotoxicity against human HL60 cells in normoxia to hypoxia after 48 hrs
Format: functional, cell-based
Run Conditions: HL-60, 48 h
Number, no unit, nothing else.

compound=COc1ccc(Nc2n[n+]([O-])c3ccccc3[n+]2[O-])cc1 test_target=HL-60 val=7.56
compound=[O-][n+]1nc(NCc2ccccc2)[n+]([O-])c2ccccc21 test_target=HL-60 val=2.53
compound=O=[N+]([O-])c1ccc(CNc2n[n+]([O-])c3ccccc3[n+]2[O-])cc1 test_target=HL-60 val=4.29

Lab book: IC50 ratio of Nc1n[n+]([O-])c2ccccc2[n+]1[O-] [TIRAPAZAMINE] noted as 2.31

###

The compounds listed here are annotated with their pIC50.
Test system: MOLT-4
Assay Method Text: Cytotoxicity against human Molt4 cells after 48 hrs by MTT assay
Assay type: functional, cell-based
Run Conditions: MOLT-4, 48 h
Bear in mind: pIC50 is minus log10 of a mol/L concentration; give just that figure.

Example entries begin here.
molecule=[O-][n+]1nc(NCc2ccccc2Cl)[n+]([O-])c2ccccc21 val=5.64
molecule=C=CCNc1n[n+]([O-])c2ccccc2[n+]1[O-] val=5.52
molecule=[O-][n+]1nc(NCc2ccccc2)[n+]([O-])c2ccccc21 val=5.66
molecule=O=[N+]([O-])c1ccc(CNc2n[n+]([O-])c3ccccc3[n+]2[O-])cc1 val=6.10

Given item `CCCCCCCCNc1n[n+]([O-])c2ccccc2[n+]1[O-]` , the value recorded as its pIC50 is 5.31

###

Test system: MOLT-4
Assay Method Text: Cytotoxicity against human Molt4 cells after 48 hrs by MTT assay
Format: functional, cell-based
Run Conditions: MOLT-4, 48 h
In this section, each of the compounds is paired with its reported IC50.
// note: answer is a bare numeric in nM

Some compounds with known IC50 results, for comparison:
molecule=Nc1n[n+]([O-])c2ccccc2[n+]1[O-] unit=nM val=4600
molecule=[O-][n+]1nc(NC2CCCCC2)[n+]([O-])c2ccccc21 unit=nM val=1300
molecule=[O-][n+]1nc(Nc2ccccc2)[n+]([O-])c2ccccc21 unit=nM val=1400

Item: `[O-][n+]1nc(NCCO)[n+]([O-])c2ccccc21` | System: MOLT-4 | IC50: 2600

Tested on MOLT-4: `Nc1ccccc1Nc1n[n+]([O-])c2ccccc2[n+]1[O-]` . Observed IC50: 2300

Form field IC50 for item `COc1ccc(Nc2n[n+]([O-])c3ccccc3[n+]2[O-])cc1` on MOLT-4: 600
